experiment: Ratio of drug level in brain to plasma in CD rat at 10 to 70 mg/kg, po administered through gavage measured at 6 hrs; type: ADME, organism-based; conditions: read-out: BPR
experimental.readout: Kp at 6 h

Entry under review: NC(=O)C1(c2ccccc2)CC2CCC(C1)N2C(c1ccccc1Cl)c1ccccc1Cl (stereo unspecified) . Reported Kp at 6 h? 0.43 to 0.59

----------
assay: Oral bioavailability in Wistar rat at 0.3 mg/kg; type: ADME, organism-based; settings: in vivo
experimental.readout: bioavailability (%)
Numeric answer only, unit % assumed.

Entry under review: `O=C1NCN(c2ccccc2)C12CCN([C@@H]1CC[C@H]3CCCc4cccc1c43)CC2` . Reported bioavailability? 4
